# Test system: OVCAR-8
# EXPERIMENT: NCI tumour cell line growth inhibition, 48 h
The source made the active and inactive calls. Cut-off read from the data, not from the text of the source: active = GI50 up to about 1.1 µM and inactive = higher.
// classify into active, inactive

Problem: # outcome recorded in this test, key = COc1cc2cnc3c4ccccc4ccc3c2cc1OC
Solution: inactive

Problem: # outcome recorded in this test, key = COC1OC2COC(c3ccccc3)OC2C(O)C1Br (stereo unspecified)
Solution: inactive

Problem: # outcome recorded in this test, key = C=C1C(=O)OC2/C=C(\C)CC/C=C(\C)CC(OC(=O)/C(=C/CO)CO)[C@@H]12 (stereo partly specified)
Solution: inactive

Problem: # outcome recorded in this test, key = O=C(c1cccnc1)N1N=C(c2ccccc2)CC1(O)c1cc(F)c(Cl)cc1Cl (stereo unspecified)
Solution: inactive

Problem: # outcome recorded in this test, key = O=C(CCc1cccc(O)c1)NCCc1ccc(O)cc1
Solution: inactive

Problem: # outcome recorded in this test, key = O=C(Nc1cccc(Cl)c1)C(=O)C(C(=O)c1ccc2ccccc2c1)C1OC(=O)c2ccccc21 (stereo unspecified)
Solution: inactive

Problem: # outcome recorded in this test, key = O=[N+]([O-])c1ccc2[nH]nc(OCc3ccccc3Cl)c2c1
Solution: inactive

Problem: # outcome recorded in this test, key = CC12CC3OC(=O)C1COC14OC5(C2C1=O)C(O)(CCC1C4CC2OC24CC=CC(=O)C14C)C(=O)OC35C (stereo unspecified)
Solution: inactive

Problem: # outcome recorded in this test, key = O=C1C=C(c2ccccc2)O/C1=C\C(=O)c1ccc(Cl)cc1
Solution: inactive

Problem: # outcome recorded in this test, key = O=c1c2cc(S(=O)(=O)O)ccc2nc(COc2ccc(Oc3ccc(Cl)cc3Cl)cc2)n1C(=S)Nc1ccc(Cl)cc1
Solution: inactive

###

# System: SF-295
# EXPERIMENT: NCI tumour cell line growth inhibition, 48 h
Active and inactive are the calls of the source. No stated cut-off is given here; in the data, active = GI50 up to about 1.1 µM and inactive = higher.
// classify into active, inactive

As a guide, the following entries are already answered.
{"COMPOUND": "C1CCC(N=C2N(C3CCCCC3)C(=NC3CCCCC3)N2C2CCCCC2)CC1", "ASSIGNED_CLASS": "inactive"}
{"COMPOUND": "COc1cc2c(c(O)c1OC)C(O)C1CCC(=O)N1C2c1ccc2c(c1)OCO2 (stereo not given)", "ASSIGNED_CLASS": "inactive"}
{"COMPOUND": "C[C@@H](CC(O)C(O)C(C)(C)O)C1CCC23CC12CCC1[C@@]2(C)CCC(=O)C(C)(C)C2CC(OC2OC(CO)C(O)C(O)C2O)[C@]13C (stereo not given in full)", "ASSIGNED_CLASS": "inactive"}

Problem: # outcome recorded in this test, key = Cc1ccc2[nH]c3c(C)c4ccncc4c(C)c3c2c1
Solution: active

Problem: # outcome recorded in this test, key = O=C(NC(=O)c1cn(CCN2CCN(C(=O)NCCCCCCNC(=O)N3CCN(CCn4cc(C(=O)NC(=O)OCc5ccccc5)c(=O)[nH]c4=O)CC3)CC2)c(=O)[nH]c1=O)OCc1ccccc1
Solution: inactive

###

# Test system: SF-295
# EXPERIMENT: NCI tumour cell line growth inhibition, 48 h
Calls of active or inactive are those of the source. Cut-off read from the data, not from the text of the source: active = GI50 up to about 1.1 µM and inactive = higher.
// classify into label 1 (active), label 0 (inactive)

{"MOLECULE": "O=C1OC2(CC1C1(O)C3CC4CC(C3)CC1C4)C1CC3CC(C1)CC2C3 (stereo not given)", "ASSIGNED_CLASS": "label 0"}
{"MOLECULE": "O=C(/C=C/c1ccc(-c2ccccc2)cc1)NCc1ccc(C(=O)NCCc2ccccc2)cc1", "ASSIGNED_CLASS": "label 0"}
{"MOLECULE": "Cc1ccc2c(c1)C(=O)c1[nH]c3ccc(F)cc3c1CO2", "ASSIGNED_CLASS": "label 0"}
{"MOLECULE": "CCCc1cn2c(/C=N/NC(=N)N)c(-c3ccc([N+](=O)[O-])cc3)nc2s1", "ASSIGNED_CLASS": "label 1"}

Problem: # outcome recorded in this test, key = C/C=C1/CN2CCc3c([nH]c4ccccc34)[C@@H]2C[C@@H]1Cc1nccc2c1[nH]c1cc(O)ccc12
Solution: label 0

###

# Test system: Malme-3M
# EXPERIMENT: NCI tumour cell line growth inhibition, 48 h
Activity calls are given as the source filed them. Rule as the data show it: active = GI50 up to about 1.1 µM and inactive = higher.
// classify into active, inactive

{"MOLECULE": "COc1ccc(CC(=O)N2CCC3(C)CC(=O)CC=C23)cc1OC (configuration not stated)", "ASSIGNED_CLASS": "inactive"}

Problem: # outcome recorded in this test, key = O=C(O)CSSCC(=O)O
Solution: inactive

Problem: # outcome recorded in this test, key = CN1N=C2c3ccccc3CC[C@H]2C1c1cccc(O)c1 (some centres not stated)
Solution: active

Problem: # outcome recorded in this test, key = C=C(C)[C@@H](O)[C@H](O)C[C@H](C)C1CC[C@]2(C)C1=CC[C@@H]1[C@@]3(C)CC[C@@H](OC(C)=O)C(C)(C)[C@@H]3C[C@@H](OC3OC(COC(C)=O)C(O)C(O)C3O)[C@]12C (some centres not stated)
Solution: inactive

Problem: # outcome recorded in this test, key = CNc1ccc(-c2nc3cc(C)ccc3o2)cc1
Solution: inactive

Problem: # outcome recorded in this test, key = CS(=O)(=O)N1CC(CCl)c2ccc([N+](=O)[O-])cc21 (configuration not stated)
Solution: inactive

###

# Tested on: HOP-62
# EXPERIMENT: NCI tumour cell line growth inhibition, 48 h
Activity calls are given as the source filed them. Rule as the data show it: active = GI50 up to about 1.1 µM and inactive = higher.
MEASUREMENT_NAME: GI50

{"COMPOUND": "Cc1ccc(S(=O)(=O)N2CCCCC2CCO)cc1 (stereo unspecified)", "GI50": "> 100 µM (inactive)"}
{"COMPOUND": "NC(=O)NC1NC(=O)NC1=O (stereo unspecified)", "GI50": "> 100 µM (inactive)"}
{"COMPOUND": "CC(C)(C)NC(NC(C)(C)C)=C(/C=C(/Cl)[N+](=O)[O-])[N+](=O)[O-]", "GI50": "> 100 µM (inactive)"}
{"COMPOUND": "CCCc1cn2c(/C=N/NC(=N)N)c(-c3ccc([N+](=O)[O-])cc3)nc2s1", "GI50": "1.77 µM (inactive)"}
{"COMPOUND": "COc1ccc2[nH]c3c(c2c1)CC(=S)N1CCCC(CC3=O)C1 (stereo unspecified)", "GI50": "87.3 µM (inactive)"}

Problem: Answer with GI50 of Cc1ccc(/C=N/n2c(-c3ccc(C)cc3)n[nH]c2=O)cc1 measured for HOP-62.
Solution: 61.9 µM (inactive)

Problem: Answer with GI50 of NC(=O)C1CCCN1Cc1ccc2c(c1)OCO2 (stereo unspecified) measured for HOP-62.
Solution: > 100 µM (inactive)

Problem: Answer with GI50 of C=C1C(=O)OC2C3C(=C)[C@@H](OC(C)=O)CC3C(C)=CC(OC(=O)C(C)(O)C(C)OC(C)=O)[C@@H]12 (stereo partly specified) measured for HOP-62.
Solution: 21.3 µM (inactive)

Problem: Answer with GI50 of O=C1NC(Cc2c[nH]c3ccccc23)C(=O)N2C(C3CCCCC3)c3[nH]c4ccccc4c3C[C@@H]12 (stereo partly specified) measured for HOP-62.
Solution: 18.2 µM (inactive)

Problem: Answer with GI50 of O=c1ccc2nc3ccc(O)cc3oc-2c1 measured for HOP-62.
Solution: 17 µM (inactive)

Problem: Answer with GI50 of COC(=O)/C(=N/NC(N)=O)C(C(=O)OC)C(=O)C(=O)Nc1ccc(Cl)cc1 (stereo unspecified) measured for HOP-62.
Solution: > 100 µM (inactive)

Problem: Answer with GI50 of O=C1C(CN2CCCC2)CCC1CN1CCCC1 (stereo unspecified) measured for HOP-62.
Solution: > 100 µM (inactive)

Problem: Answer with GI50 of CCOC(=O)c1c(SCCN2CCCCC2)n(-c2ccccc2)c(=S)n(-c2ccccc2)c1=O measured for HOP-62.
Solution: 14 µM (inactive)

Problem: Answer with GI50 of NC(Cc1ccc(O)cn1)C(=O)O (stereo unspecified) measured for HOP-62.
Solution: > 100 µM (inactive)

Problem: Answer with GI50 of O=C(CCCNc1nc(-c2ccccc2)cs1)c1cccs1 measured for HOP-62.
Solution: > 100 µM (inactive)

Problem: Answer with GI50 of CN(C)CCNC(=O)c1cc([N+](=O)[O-])cc2ccc(-c3ccccc3)nc12 measured for HOP-62.
Solution: 12.9 µM (inactive)

Problem: Answer with GI50 of CC(Oc1ccccc1Cl)C(=O)NN1C(=O)CC(=O)NC1=S (stereo unspecified) measured for HOP-62.
Solution: > 100 µM (inactive)

Problem: Answer with GI50 of CC1(C)C(CBr)=[N+]([O-])C(C)(C)N1O measured for HOP-62.
Solution: > 10 µM (inactive)

Problem: Answer with GI50 of COc1cc2nc(Sc3c([N+](=O)[O-])ncn3C)[nH]c2cc1OC measured for HOP-62.
Solution: > 100 µM (inactive)
